The measured values listed here are drawn from PubChem BioAssay (NCI).

Form field: TGI (one value per entry).
- Tested on: UACC-257 melanoma
- Experiment summary: NCI tumour cell line growth inhibition, 48 h

{"Compound": "COc1cc(/C=C/C(=N\\NS(=O)(=O)c2ccc(C)cc2)c2sc(NNC(C)=O)nc2C)ccc1O", "Target of assay": "UACC-257 melanoma", "Reading qualifier": ">", "TGI / µM": 100}
{"Compound": "CC1=C(C)[C@@]2(C)O[C@@]2(C)O[C@@]2(C)O[C@@]12C", "Target of assay": "UACC-257 melanoma", "Reading qualifier": ">", "TGI / µM": 100}
{"Compound": "CCC(CO)Nc1nc2ccc(Cl)cc2c2ccccc12 (configuration not stated)", "Target of assay": "UACC-257 melanoma", "Reading qualifier": "=", "TGI / µM": 28.6}
{"Compound": "CCNC(=S)N/N=C/c1cc([N+](=O)[O-])ccc1O", "Target of assay": "UACC-257 melanoma", "Reading qualifier": ">", "TGI / µM": 100}
{"Compound": "CC1=C(C(=O)Nc2ccc(Cl)c(Cl)c2)C(c2cccc(Oc3ccccc3)c2)NC(=S)N1 (configuration not stated)", "Target of assay": "UACC-257 melanoma", "Reading qualifier": "=", "TGI / µM": 22}
{"Compound": "C#Cc1ccc(-n2c(/C=C/c3ccc(C(F)(F)F)cc3)nc3ncccc3c2=O)cc1", "Target of assay": "UACC-257 melanoma", "Reading qualifier": "=", "TGI / µM": 2.95}
{"Compound": "Clc1ccc2c(NCCCCNc3nc(N4CCCCC4)nc4ccccc34)ccnc2c1", "Target of assay": "UACC-257 melanoma", "Reading qualifier": "=", "TGI / µM": 3.68}
{"Compound": "COC1=CC(c2ccc[nH]2)=N/C1=C\\c1[nH]c(C)c(C(=O)OC(C)C)c1C", "Target of assay": "UACC-257 melanoma", "Reading qualifier": "=", "TGI / µM": 1.87}
{"Compound": "NC(=O)c1cccc2cn(-c3ccc([C@@H]4CCCNC4)cc3)nc12", "Target of assay": "UACC-257 melanoma", "Reading qualifier": "=", "TGI / µM": 30.7}
{"Compound": "CC/C=C\\CCC/C=C1/C(=O)C=C[C@@H]1C/C=C\\CCCC(=O)OC", "Target of assay": "UACC-257 melanoma", "Reading qualifier": "=", "TGI / µM": 20.5}
{"Compound": "COc1ccc(CNc2nc(NCc3ccc(OC)c(OC)c3)nc(NC3CCCCC3)n2)cc1", "Target of assay": "UACC-257 melanoma", "Reading qualifier": ">", "TGI / µM": 100}
{"Compound": "COC(=O)C1CCC(=O)N1C(c1ccccc1)c1ccc(OC)c(OC)c1 (configuration not stated)", "Target of assay": "UACC-257 melanoma", "Reading qualifier": ">", "TGI / µM": 100}
